# assayed system: HCMV polymerase (Human cytomegalovirus, UniProt P08546)
# Construct: made in house; host or cells: recombinant baculovirus-infected SF-9 cells
# experiment summary: HCMV polymerase assay (scintillation proximity assay)
# Assay type: biochemical
# condition label: Table 10; CMV pol Assay; read-out: IC50
Classify: label 1 when IC50 is strictly less than 8 µM; label 0 when IC50 is not.

Strictly below 8 µM: is that where IC50 of O=C(Nc1ccc2c(c1)OCO2)c1ccc2cccnc2c1O sits? label 0

Strictly below 8 µM: is that where IC50 of N#Cc1ccc(NC(=O)c2ccc3cccnc3c2O)cc1 [drawing 210] sits? label 0

Strictly below 8 µM: is that where IC50 of O=C(Nc1ccc(Oc2ccc([N+](=O)[O-])cc2)cc1)c1ccc2cccnc2c1O sits? label 1

Strictly below 8 µM: is that where IC50 of O=C(Nc1ccc([N+](=O)[O-])cc1Cl)c1ccc2cccnc2c1O sits? label 1

Strictly below 8 µM: is that where IC50 of O=C(Nc1ccc2cccc(O)c2n1)c1ccc2cccnc2c1O sits? label 0

---

Answer each item with its documented inhibition at 3.13 µM.
# assayed system: CMV polymerase (Human cytomegalovirus, UniProt P08546)
# Construct: made in house; host or cells: recombinant baculovirus-infected SF-9 cells
# Sequence (P08546 whole entry): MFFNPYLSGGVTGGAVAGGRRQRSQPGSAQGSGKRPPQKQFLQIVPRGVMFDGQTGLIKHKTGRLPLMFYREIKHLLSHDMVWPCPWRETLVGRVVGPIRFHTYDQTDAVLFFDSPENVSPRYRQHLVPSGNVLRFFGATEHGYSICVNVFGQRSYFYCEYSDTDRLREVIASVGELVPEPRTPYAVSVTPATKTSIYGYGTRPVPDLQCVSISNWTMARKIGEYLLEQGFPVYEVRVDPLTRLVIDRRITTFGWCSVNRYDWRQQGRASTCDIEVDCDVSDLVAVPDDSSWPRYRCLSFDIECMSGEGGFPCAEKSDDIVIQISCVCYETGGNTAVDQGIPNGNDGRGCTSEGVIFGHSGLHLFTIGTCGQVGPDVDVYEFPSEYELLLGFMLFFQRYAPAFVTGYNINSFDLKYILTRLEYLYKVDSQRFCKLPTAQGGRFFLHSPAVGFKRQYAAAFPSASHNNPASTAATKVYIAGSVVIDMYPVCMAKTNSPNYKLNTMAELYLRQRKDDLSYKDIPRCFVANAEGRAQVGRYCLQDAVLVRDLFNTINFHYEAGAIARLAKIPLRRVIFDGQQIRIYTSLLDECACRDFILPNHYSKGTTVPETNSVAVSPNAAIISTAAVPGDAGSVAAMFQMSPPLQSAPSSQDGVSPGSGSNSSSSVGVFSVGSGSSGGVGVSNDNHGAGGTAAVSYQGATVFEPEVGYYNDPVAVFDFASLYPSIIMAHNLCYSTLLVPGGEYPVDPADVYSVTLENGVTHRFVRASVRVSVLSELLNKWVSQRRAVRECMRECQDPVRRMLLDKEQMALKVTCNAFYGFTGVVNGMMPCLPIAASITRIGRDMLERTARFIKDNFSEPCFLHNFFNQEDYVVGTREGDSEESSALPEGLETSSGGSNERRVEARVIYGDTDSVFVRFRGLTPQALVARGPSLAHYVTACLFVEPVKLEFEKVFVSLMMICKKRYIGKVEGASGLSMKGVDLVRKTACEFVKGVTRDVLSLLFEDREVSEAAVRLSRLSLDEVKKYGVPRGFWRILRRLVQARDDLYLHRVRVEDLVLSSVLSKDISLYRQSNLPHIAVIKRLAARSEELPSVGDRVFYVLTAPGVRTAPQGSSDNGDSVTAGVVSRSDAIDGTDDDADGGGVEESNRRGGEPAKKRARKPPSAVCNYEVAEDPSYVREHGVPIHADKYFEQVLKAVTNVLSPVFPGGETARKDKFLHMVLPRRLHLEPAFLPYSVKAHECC
# experiment summary: modified version of the HCMV polymerase assay (100% DMSO dilution, DTT, different enzyme lot)
# Format: biochemical
# condition label: Concentration 3.13 uM; Table 3
Only the number, expressed in %, is required.

Please tell me: inhibition at 3.13 µM of Cc1ccc2c(Cl)cc(S(=O)(=O)N[C@H](C)c3ccccc3)c(O)c2n1 , system CMV polymerase (Human cytomegalovirus, UniProt P08546)? 16

Please tell me: inhibition at 3.13 µM of Cc1ccc2c(Cl)cc(S(=O)(=O)NCCCN3CCOCC3)c(O)c2n1 , system CMV polymerase (Human cytomegalovirus, UniProt P08546)? -1

Please tell me: inhibition at 3.13 µM of Cc1ccc2c(Cl)cc(S(=O)(=O)N[C@@H](C)c3ccccc3)c(O)c2n1 , system CMV polymerase (Human cytomegalovirus, UniProt P08546)? 22

Please tell me: inhibition at 3.13 µM of Cc1ccc2c(Cl)cc(S(=O)(=O)NCCOc3ccccc3)c(O)c2n1 , system CMV polymerase (Human cytomegalovirus, UniProt P08546)? 31

---

# Test system: HCMV
# experiment summary: CMV antiviral assay, cell culture based ELISA in human foreskin fibroblast cells
# Set-up: species or system human cytomegalovirus (HCMV)
# condition label: Human betaherpesvirus 5, Fibroblast, read-out: CMV Antiviral Assay IC50 (AV), Table 12
Classify: YES when IC50 is strictly less than 10 µM; NO when IC50 is not.

Strictly below 10 µM: is that where IC50 of O=C(Nc1nc2ccc(Cl)cc2s1)c1ccc2cccnc2c1O [drawing 325] sits? NO

Strictly below 10 µM: is that where IC50 of Cc1ccc2c(Cl)cc(S(=O)(=O)NCc3ccccn3)c(O)c2n1 [drawing 327] sits? NO

Strictly below 10 µM: is that where IC50 of Cc1ccc2c(Cl)cc(S(=O)(=O)NCCCN3CCOCC3)c(O)c2n1 [drawing 326] sits? YES

Strictly below 10 µM: is that where IC50 of Cc1ccc2c(Cl)cc(S(=O)(=O)NCCCCc3ccccc3)c(O)c2n1 [drawing 328] sits? YES

Strictly below 10 µM: is that where IC50 of Cc1ccc2c(Cl)cc(S(=O)(=O)NCCc3ccccn3)c(O)c2n1 [drawing 329] sits? NO
